test system: A673/TR/shEF; test: cell viability (LOESS-normalised, relative to median of negative controls) (log2 ratio); higher = more viable cells (less compound effect), active = hit call of the paper (over 3 MAD below the median); conditions: 0.25 µM; library screen: screen2; EWS-FLI1 expression: low (doxycycline-induced shRNA knockdown); treatment time: 72 h
Out of some 3,200 compounds screened, about 300 (9.4%) showed activity. The sample holds actives, similar compounds and a random draw of the others, so the mix is not that of the screen.
REPORTED_METRIC: cell viability (log2)
Lab note: jot down the number only; don't add units.

Given the compound `O=C1Cc2c([nH]c3ccc([N+](=O)[O-])cc23)-c2ccccc2N1` , what is its reported cell viability (log2)? 0.0802

Reported cell viability (log2), compound `Cc1nc2ccccn2c(=O)c1CCN1CCC(C(=O)c2ccc(F)cc2)CC1` : ____ 0.127

// lookup cell viability (log2) for `CN(C)CCCN1c2ccccc2Sc2ccc(C(F)(F)F)cc21` 0.0662

Returns the measured cell viability (log2) for the input compound. Input: `COc1ccccc1N(C(N)=O)c1nc(-c2cccnc2)nc2ccccc12` 0.0439

# cell viability (log2) lookup, item OCC(O)C1NCC(O)C1O (stereo unspecified) 0.103

Any idea what cell viability (log2) was measured for `Nc1nccc2c1ncn2[C@@H]1O[C@H](CO)[C@@H](O)[C@H]1O` ? 0.0735

Quick check: cell viability (log2) of `COc1cc2ncnc(Nc3cccc(Cl)c3)c2cc1OC` ? 0.0168

cell viability (log2) for `COc1cc2ncc(-c3ccccc3)nc2cc1OC` ? 0.0671

Reported cell viability (log2), compound `O=C(c1ccc(F)cc1)C1CCN(CCn2c(=O)[nH]c3ccccc3c2=O)CC1` : ____ -0.245

What value of measured cell viability (log2) is listed for `CN(C)c1cc2c(Nc3ccc4c(cnn4Cc4ccccc4)c3)ncnc2cn1` ? 0.0545

Given the entry `Nc1ncnc2c1ncn2[C@@H]1O[C@H](CO)[C@@H](O)[C@H]1O` , report its measured cell viability (log2). 0.0787
